# Experimental target: UniProt:Q9P0X4
# Assay info: α1I VC (voltage clamp) at set holding potentials
# Type: cell-based
# Test context: −80 mV, read-out: a1I VC (−80 mV)
Endpoint name: IC50 (nM)
A number alone suffices; assume nM.

Query: Please state recorded IC50 (tested on UniProt:Q9P0X4) of C[C@@H](NC(=O)Cc1ccc(C2CC2)cc1)c1ccc(OCC(F)(F)F)cn1
Result: 98

* * *

# Tested on: L-Type
# Assay info: L-Type calcium channel counter-screen
# Type: biochemical
Endpoint name: IC50

Query: I have this molecule here, C[C@@H](NC(=O)Cc1ccc(C2CC2)cc1)c1ccc(OCC(F)(F)F)cn1 , and I need its recorded IC50.
Result: > 10 µM

* * *

# Experimental target: α1I + Kir (Homo sapiens, UniProt Q9P0X4)
# Assay info: α1I + Kir potency
Endpoint name: pIC50
pIC50 here: minus log base 10 of the concentration, concentration in moles per litre.

Query: I have this compound here, C[C@@H](NC(=O)Cc1ccc(C2CC2)cc1)c1ccc(OCC(F)(F)F)cn1 , and I need its recorded pIC50.
Result: 6.53

* * *

# Assay info: Pharmacokinetics in rat
# Type: in vivo
# Test context: plasma, 10 mg/kg, PO (1% methylcellulose), 10 mpk
Endpoint name: AUC (µM·h)
A number alone suffices; assume µM·h.

Query: I have this compound here, C[C@@H](NC(=O)Cc1ccc(C2CC2)cc1)c1ccc(OCC(F)(F)F)cn1 [TTA-A2] , and I need its recorded AUC.
Result: 46

* * *

# Assay info: Pharmacokinetics in rat
# Assay type: in vivo
# Test context: plasma, IV (DMSO)
Endpoint name: half-life (h)
A number alone suffices; assume h.

Query: I have this molecule here, C[C@@H](NC(=O)Cc1ccc(C2CC2)cc1)c1ccc(OCC(F)(F)F)cn1 [TTA-A2] , and I need its recorded half-life.
Result: 1.6

* * *

# Assay info: Pharmacokinetics in monkey
# Type: in vivo
# Test context: plasma, 3 mg/kg, PO (1% methylcellulose), 3 mpk
Endpoint name: AUC
Put down the number, then write its unit next to it.

Query: I have this compound here, C[C@@H](NC(=O)Cc1ccc(C2CC2)cc1)c1ccc(OCC(F)(F)F)cn1 , and I need its recorded AUC.
Result: 0.6 µM·h

* * *

# Experimental target: α1I (Homo sapiens, UniProt Q9P0X4)
# Sequence (Q9P0X4 whole entry): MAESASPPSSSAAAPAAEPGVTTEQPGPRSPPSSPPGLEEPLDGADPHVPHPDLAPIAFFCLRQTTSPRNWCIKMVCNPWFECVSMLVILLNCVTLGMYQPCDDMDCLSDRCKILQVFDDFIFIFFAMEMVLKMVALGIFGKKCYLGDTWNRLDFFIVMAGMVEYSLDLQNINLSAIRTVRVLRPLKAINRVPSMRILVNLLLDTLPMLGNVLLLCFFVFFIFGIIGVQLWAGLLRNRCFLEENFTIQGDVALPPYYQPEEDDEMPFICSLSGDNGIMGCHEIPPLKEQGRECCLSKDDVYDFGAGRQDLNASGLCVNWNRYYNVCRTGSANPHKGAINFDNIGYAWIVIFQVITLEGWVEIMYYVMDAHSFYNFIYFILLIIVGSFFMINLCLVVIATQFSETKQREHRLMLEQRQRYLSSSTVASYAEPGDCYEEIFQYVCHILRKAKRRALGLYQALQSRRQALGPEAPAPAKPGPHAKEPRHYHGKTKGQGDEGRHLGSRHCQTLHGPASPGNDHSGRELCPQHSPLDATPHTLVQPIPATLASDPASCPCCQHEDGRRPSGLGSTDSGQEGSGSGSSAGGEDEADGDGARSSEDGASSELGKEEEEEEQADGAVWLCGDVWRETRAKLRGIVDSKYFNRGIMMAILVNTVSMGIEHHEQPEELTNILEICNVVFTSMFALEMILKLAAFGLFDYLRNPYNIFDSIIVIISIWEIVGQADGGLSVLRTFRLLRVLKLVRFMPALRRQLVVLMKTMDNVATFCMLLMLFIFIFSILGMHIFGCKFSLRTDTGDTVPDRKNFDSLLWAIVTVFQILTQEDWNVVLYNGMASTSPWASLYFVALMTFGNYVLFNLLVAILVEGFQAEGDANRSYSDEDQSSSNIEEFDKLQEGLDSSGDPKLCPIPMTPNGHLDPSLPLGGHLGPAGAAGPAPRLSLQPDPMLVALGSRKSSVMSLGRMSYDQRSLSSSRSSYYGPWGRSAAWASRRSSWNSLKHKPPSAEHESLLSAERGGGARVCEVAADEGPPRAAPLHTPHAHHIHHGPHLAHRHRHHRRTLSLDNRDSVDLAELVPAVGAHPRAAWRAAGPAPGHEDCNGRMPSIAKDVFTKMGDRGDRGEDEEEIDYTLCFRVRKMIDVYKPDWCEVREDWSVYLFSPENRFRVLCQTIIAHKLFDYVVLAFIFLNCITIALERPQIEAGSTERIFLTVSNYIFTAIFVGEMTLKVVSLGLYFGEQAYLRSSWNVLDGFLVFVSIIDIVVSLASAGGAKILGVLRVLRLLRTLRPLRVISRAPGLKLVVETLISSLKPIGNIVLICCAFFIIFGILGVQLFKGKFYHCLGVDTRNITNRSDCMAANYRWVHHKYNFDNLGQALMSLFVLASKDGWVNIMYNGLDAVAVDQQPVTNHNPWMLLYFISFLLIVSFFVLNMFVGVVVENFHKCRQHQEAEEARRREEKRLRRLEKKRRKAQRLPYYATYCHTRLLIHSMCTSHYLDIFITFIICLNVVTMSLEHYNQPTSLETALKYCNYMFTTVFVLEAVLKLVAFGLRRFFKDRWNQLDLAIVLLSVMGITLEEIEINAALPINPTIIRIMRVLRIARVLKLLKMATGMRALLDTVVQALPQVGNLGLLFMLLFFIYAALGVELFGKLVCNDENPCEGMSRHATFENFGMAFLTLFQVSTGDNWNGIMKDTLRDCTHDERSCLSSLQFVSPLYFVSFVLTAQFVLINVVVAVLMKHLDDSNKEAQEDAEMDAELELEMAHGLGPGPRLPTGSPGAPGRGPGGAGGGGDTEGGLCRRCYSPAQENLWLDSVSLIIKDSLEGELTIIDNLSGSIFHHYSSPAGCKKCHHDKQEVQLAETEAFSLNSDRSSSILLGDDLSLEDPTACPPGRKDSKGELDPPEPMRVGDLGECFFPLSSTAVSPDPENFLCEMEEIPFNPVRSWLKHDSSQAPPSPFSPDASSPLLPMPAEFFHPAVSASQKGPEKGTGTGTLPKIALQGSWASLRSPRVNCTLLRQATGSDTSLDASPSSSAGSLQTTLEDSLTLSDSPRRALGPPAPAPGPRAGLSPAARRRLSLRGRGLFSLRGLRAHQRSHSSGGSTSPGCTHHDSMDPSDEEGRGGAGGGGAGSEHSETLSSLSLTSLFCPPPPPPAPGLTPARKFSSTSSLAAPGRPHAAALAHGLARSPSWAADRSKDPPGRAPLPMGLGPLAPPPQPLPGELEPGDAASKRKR
# Assay info: α1I potency
# Assay type: cell-based
Endpoint name: IC50 (nM)
A number alone suffices; assume nM.

Query: I have this compound here, C[C@@H](NC(=O)Cc1ccc(C2CC2)cc1)c1ccc(OCC(F)(F)F)cn1 , and I need its recorded IC50.
Result: 9

* * *

# Assay info: Pharmacokinetics in dog
# Format: in vivo
# Test context: plasma, 1 mg/kg, PO (1% methylcellulose), 1 mpk
Endpoint name: AUC (µM·h)
A number alone suffices; assume µM·h.

Query: I have this molecule here, C[C@@H](NC(=O)Cc1ccc(C2CC2)cc1)c1ccc(OCC(F)(F)F)cn1 , and I need its recorded AUC.
Result: 23

* * *

# Experimental target: hERG (Homo sapiens)
# Sequence (Q12809 whole entry): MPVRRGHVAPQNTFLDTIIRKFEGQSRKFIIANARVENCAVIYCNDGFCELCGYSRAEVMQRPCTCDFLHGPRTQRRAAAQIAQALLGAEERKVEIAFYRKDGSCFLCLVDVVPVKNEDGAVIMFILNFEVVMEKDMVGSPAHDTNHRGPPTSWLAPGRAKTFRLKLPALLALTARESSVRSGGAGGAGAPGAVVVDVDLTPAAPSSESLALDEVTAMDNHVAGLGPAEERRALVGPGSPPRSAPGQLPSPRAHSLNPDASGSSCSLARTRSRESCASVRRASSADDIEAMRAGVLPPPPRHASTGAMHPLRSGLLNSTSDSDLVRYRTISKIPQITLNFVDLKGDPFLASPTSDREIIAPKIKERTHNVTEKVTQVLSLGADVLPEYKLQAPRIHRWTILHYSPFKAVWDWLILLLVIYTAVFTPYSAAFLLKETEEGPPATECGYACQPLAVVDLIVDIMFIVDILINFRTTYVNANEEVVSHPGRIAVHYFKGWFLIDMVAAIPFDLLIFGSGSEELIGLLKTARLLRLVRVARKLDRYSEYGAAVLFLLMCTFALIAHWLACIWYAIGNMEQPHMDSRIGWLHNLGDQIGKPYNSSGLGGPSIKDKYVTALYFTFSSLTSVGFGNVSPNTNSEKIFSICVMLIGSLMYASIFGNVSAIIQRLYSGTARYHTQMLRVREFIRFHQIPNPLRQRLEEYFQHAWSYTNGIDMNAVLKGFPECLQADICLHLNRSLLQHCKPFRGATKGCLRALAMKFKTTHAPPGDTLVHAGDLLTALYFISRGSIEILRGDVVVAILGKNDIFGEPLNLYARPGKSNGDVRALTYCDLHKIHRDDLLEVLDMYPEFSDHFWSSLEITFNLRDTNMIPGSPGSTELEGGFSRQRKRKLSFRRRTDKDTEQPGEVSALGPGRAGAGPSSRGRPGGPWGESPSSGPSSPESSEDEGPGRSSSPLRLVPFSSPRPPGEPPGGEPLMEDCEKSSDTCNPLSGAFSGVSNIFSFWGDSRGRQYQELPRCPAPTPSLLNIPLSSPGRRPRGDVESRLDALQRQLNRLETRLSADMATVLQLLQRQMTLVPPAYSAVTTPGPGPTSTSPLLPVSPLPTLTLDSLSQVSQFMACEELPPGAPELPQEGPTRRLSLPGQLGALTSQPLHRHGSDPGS
Endpoint name: IC50

Query: I have this compound here, C[C@@H](NC(=O)Cc1ccc(C2CC2)cc1)c1ccc(OCC(F)(F)F)cn1 [TTA-A2] , and I need its recorded IC50.
Result: > 10 µM

* * *

# Assay info: Pharmacokinetics in monkey
# Type: in vivo
# Test context: plasma, 3 mg/kg, PO (1% methylcellulose), 3 mpk
Endpoint name: Cmax (nM)
A number alone suffices; assume nM.

Query: I have this compound here, C[C@@H](NC(=O)Cc1ccc(C2CC2)cc1)c1ccc(OCC(F)(F)F)cn1 [TTA-A2] , and I need its recorded Cmax.
Result: 300
